Listed here: items and their measured kon.
target: T1, SIRPα V1-his (ACRO, Cat #SIA-H5225) (human, UniProt P78324 31-370); test: SPR (Biacore), antibody captured by anti-Fc on CM5, 50 nM SIRPα V1-his injected, 1:1 model
T1 construct: not shown: His tag
T1 sequence (P78324 31-370 limits assumed): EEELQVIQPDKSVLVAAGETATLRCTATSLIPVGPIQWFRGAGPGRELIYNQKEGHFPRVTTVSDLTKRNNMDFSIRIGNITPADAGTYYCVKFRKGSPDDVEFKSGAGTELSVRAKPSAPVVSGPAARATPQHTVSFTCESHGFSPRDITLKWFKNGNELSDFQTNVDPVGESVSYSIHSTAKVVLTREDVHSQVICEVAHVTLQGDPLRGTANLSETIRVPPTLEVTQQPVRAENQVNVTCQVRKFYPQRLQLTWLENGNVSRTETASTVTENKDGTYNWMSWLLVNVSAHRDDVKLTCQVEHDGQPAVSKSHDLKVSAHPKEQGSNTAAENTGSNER
Report as a plain number; the unit M⁻¹ s⁻¹ is understood.

Example binders with recorded kon:
[
  {
    "binder": "Z8 (antibody, IgG1, V domains shown, also called humanized variant Z8) VH: QVQLQESGPGLVKPSQTLSLTCTVSGFSLTGYGVNWIRQPPGKGLEWIGIIWGDGSTDYNSALKSRVTISKDTSKNQVFLKLSSVTADDTARYYCARAGKMDYWGQGTTVTVSS VL: DIVLTQSPASLAVSPGQRATITCRASESVDSYGNSFMHWYQQKPGQPPKLLIYLASNLESGVPARFSGSGSRTDFTLTINPVEANDAANYYCQQNNEYPWTFGGGTKVEIK",
    "result number": 768000
  },
  {
    "binder": "Z9 (antibody, IgG1, V domains shown, also called humanized variant Z9) VH: QVQLQESGPGLVKPSQTLSLTCTVSGFSLTGYGVNWIRQPPGKGLEWIGIIWGDGSTDYNSALKSRVTISKDTSKNQVFLKLSSVTADDTARYYCARAGKMDYWGQGTTVTVSS VL: DIVLTQSPASLAVSPGQRATITCRASESVDSYGNSFMHWYQQKPGQPPKPLIYLASNLESGVPARFSGSGSRTDFTLTINPVEANDAANYYCQQNNEYPWTFGGGTKVEIK",
    "result number": 708000
  }
]

[in] Item under review: Z7 (antibody, IgG1, V domains shown, also called humanized variant Z7) VH: QVQLQESGPGLVKPSQTLSLTCTVSGFSLTGYGVNWIRQPPGKGLEWIGIIWGDGSTDYNSALKSRVTISKDTSKNQVFLKLSSVTADDTARYYCARAGKMDYWGQGTTVTVSS VL: DIVLTQSPASLAVSPGQRATITCRASESVDSYGNSFMHWYQQKPGQPPKPLIYLASNLESGVPARFSGSGSGTDFTLTINPVEANDAANYYCQQNNEYPWTFGGGTKVEIK . Reported kon?
[out] 754000

[in] Item under review: Z1 (antibody, IgG1, V domains shown, also called humanized variant Z1) VH: QVQLQESGPGLVKPSQTLSLTCTVSGFSLTGYGVNWIRQPPGKGLEWIGIIWGDGSTDYNSALKSRVTISVDTSKNQVFLKLSSVTAADTAVYYCARAGKMDYWGQGTTVTVSS VL: DIVLTQSPASLAVSPGQRATITCRASESVDSYGNSFMHWYQQKPGQPPKPLIYLASNLESGVPARFSGSGSGTDFTLTINPVEANDAANYYCQQNNEYPWTFGGGTKVEIK . Reported kon?
[out] 744000
